Target: TRPC3 channel (Homo sapiens, UniProt Q13507)
Sequence (Q13507 whole entry): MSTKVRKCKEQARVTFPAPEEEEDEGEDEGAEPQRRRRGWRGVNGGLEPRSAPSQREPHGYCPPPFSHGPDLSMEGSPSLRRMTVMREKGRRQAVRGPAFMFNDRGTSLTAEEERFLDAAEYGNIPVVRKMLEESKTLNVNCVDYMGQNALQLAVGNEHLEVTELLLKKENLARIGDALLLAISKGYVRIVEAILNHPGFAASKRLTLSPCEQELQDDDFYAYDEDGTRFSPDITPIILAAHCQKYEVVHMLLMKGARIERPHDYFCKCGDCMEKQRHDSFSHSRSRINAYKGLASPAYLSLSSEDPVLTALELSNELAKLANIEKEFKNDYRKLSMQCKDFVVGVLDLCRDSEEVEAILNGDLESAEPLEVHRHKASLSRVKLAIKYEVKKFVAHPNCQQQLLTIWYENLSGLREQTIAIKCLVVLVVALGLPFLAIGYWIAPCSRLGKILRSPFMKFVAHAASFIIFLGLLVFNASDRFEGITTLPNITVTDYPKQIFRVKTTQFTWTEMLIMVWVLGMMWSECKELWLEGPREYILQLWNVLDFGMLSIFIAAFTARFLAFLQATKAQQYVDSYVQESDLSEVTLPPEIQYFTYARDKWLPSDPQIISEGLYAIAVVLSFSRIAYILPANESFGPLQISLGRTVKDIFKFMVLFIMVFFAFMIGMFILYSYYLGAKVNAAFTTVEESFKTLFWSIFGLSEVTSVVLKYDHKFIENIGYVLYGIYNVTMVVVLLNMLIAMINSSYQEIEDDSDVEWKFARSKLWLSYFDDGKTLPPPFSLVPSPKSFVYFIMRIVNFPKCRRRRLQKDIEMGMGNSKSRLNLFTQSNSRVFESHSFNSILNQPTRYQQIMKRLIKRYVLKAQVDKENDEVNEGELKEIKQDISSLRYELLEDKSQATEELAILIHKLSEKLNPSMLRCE
Test: Calcium assay using HEK293 cells transiently expressing TRPC3 channel, carbachol activation (Fura-2)
Conditions: TRPC3-expressing HEK293 cells, carbachol 100 μM, from concentration-response curves; read-out: IC50 for inhibition of the TRPC3 channel
reportedMetric: pIC50
Please treat pIC50 as minus the base-10 logarithm of the molar concentration.

[in] Give recorded pIC50 with TRPC3 channel (Homo sapiens, UniProt Q13507) for the following molecule: `O=C(O)c1cnc(N2CCN(c3noc4cccc(C(F)(F)F)c34)CC2)c(Cl)c1`
[out] 6.15

====

Target: TRPC6 channel (Homo sapiens)
Construct: expressed in transfected cells; host or cells: HEK293
Sequence (Q9Y210 1-931): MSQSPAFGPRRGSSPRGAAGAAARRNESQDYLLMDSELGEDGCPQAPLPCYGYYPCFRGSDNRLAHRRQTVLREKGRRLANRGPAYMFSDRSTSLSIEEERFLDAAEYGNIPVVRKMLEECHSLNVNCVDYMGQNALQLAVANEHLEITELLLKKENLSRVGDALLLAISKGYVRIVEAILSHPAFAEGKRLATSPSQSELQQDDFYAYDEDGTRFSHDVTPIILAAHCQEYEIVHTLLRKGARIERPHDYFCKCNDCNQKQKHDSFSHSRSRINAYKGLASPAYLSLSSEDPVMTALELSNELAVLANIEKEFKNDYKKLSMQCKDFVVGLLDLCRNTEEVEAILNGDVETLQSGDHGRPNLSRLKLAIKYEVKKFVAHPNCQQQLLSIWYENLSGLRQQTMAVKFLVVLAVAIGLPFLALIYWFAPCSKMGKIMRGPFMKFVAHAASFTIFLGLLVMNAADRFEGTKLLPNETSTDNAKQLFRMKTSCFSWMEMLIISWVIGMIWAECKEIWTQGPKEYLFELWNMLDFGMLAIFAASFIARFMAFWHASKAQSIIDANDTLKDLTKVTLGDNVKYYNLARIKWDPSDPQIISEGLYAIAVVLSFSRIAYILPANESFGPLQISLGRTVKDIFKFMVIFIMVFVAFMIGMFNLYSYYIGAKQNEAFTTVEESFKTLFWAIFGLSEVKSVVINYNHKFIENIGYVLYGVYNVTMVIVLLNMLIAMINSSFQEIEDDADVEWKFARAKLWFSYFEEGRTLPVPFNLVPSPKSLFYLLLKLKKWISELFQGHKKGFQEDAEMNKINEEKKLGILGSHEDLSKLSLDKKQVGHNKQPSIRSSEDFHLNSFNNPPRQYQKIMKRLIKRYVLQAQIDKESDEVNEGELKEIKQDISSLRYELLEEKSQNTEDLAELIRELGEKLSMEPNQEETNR
Assay: Calcium assay using HEK293 cells transiently expressing TRPC6 channel, carbachol activation (Fura-2)
Type: cell-based
Conditions: 10 μM test compound, carbachol, TRPC6-expressing cells
amount of increase in calcium ions relative to control (DMSO) taken as 100% values for the compounds below.
Use % as the unit, but write only the number.

1. CCOC(=O)c1cnc(N2CCN(/C(=N\O)c3c(F)cccc3C(F)(F)F)CC2=O)c(Cl)c1 [Compound 372(Z)] | 72
2. O=C(O)c1cnc(N2CCN(c3noc4cccc(C(F)(F)F)c34)CC2=O)c(Cl)c1 | 57
3. O/N=C(\c1c(F)cccc1C(F)(F)F)N1CC=C(c2ccccc2Cl)CC1 [Compound 362(E)] | 65

// next item, amount of increase in calcium ions relative to control (DMSO) taken as 100% requested
[in] Quick one: amount of increase in calcium ions relative to control (DMSO) taken as 100% for `O=C(O)c1ccc(C2=CCN(c3noc4cccc(C(F)(F)F)c34)CC2)c(Cl)c1` ?
[out] 19

From: patent US11976062B2
